biological target: GABA-A receptor; alpha-1/beta-3/gamma-2 (Homo sapiens) (UniProt P14867+P18507+P28472); experiment: Negative allosteric modulation activity at human recombinant alpha1beta3gamma2 GABAA receptor stably expressed in HEK293 cells assessed as modulation at alpha1 subunit at 10 uM by Patch clamp method; type: cell-based; conditions: filed as negative allosteric modulator
Provide the reported Activity of each item.
# number only, unit % dropped from output

Short answer please: Activity, GABA-A receptor; alpha-1/beta-3/gamma-2 (Homo sapiens) (UniProt P14867+P18507+P28472), entry `Cc1onc(-c2ccc(F)cc2)c1COc1ccc2c(n1)CCN(C(=O)CS(C)(=O)=O)C2`
-2

Can you check `CC(=O)N1Cc2ccc(OCc3c(C)nnn3-c3ccc(F)cc3)nc2C1` next?
-7

Next record, please: `Cc1onc(-c2ccc(F)cc2)c1COc1ccc2c(n1)CCN(C(=O)C1CCOCC1)C2`
-9

And the next one, `Cc1onc(-c2ccc(F)cc2)c1COc1ccc2c(n1)CCN(C(=O)C1CCS(=O)(=O)CC1)C2` ?
-10

Entry to check: `Cc1nnn(-c2ccc(F)cc2)c1COc1ccc2c(n1)CCN(CCS(C)(=O)=O)C2=O`
-16

All figures here come from ChEMBL document CHEMBL5154916.
